ASSAY_SYSTEM: Recombinant human c-Cbl (aa 47-435) (Homo sapiens, UniProt P22681)
Sequence (P22681 47-435): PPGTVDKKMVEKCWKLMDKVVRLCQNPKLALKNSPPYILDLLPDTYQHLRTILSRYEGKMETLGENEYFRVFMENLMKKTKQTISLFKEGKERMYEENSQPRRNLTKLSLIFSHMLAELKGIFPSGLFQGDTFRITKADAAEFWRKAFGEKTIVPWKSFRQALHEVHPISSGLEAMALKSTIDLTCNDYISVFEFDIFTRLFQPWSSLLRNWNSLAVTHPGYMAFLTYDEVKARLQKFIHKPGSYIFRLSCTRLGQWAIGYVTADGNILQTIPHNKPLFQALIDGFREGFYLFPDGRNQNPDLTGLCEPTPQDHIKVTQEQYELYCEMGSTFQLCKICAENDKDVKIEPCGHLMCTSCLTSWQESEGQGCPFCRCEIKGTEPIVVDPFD
METHOD_DESCRIPTION: c-Cbl Biochemical Assay (TR-FRET)
RUN_CONDITIONS: hc-Cbl Biochemical Assay (TR-FRET); read-out: TR-FRET hcCbl IC50
OBSERVATION_TYPE: IC50

Answered cases to consult:
COMPOUND: Cn1cnnc1CC1(c2cccc(-c3nc4cc(C(=O)N5CCC6(CC6)C5)cc(C(F)(F)F)c4[nH]3)c2)COC1
IC50: 10000 to 50000 nM

COMPOUND: CN(Cc1cc(F)c2oc(-c3cc(-c4ccc(F)cc4-c4nncn4C)cc(C4CC4)n3)nc2c1)[C@@H]1CCC[C@@H]1O
IC50: < 200 nM

COMPOUND: C[C@H]1CCC[C@@H](NCc2cc(C(F)(F)F)c3oc(-c4cccc(-c5ccc(F)cc5-c5nncn5C)c4)nc3c2)C1 (racemic)
IC50: < 200 nM

COMPOUND: Cn1cnnc1-c1cc(F)ccc1-c1cc(-c2nc3cc(CN[C@@H]4CCC[C@@H]4O)c(F)c(F)c3o2)nc(C2CC2)c1
IC50: < 200 nM

COMPOUND: CO[C@H](C)CNCc1cc(F)c2oc(-c3cc(-c4ccc(F)cc4-c4nncn4C)cc(C4CC4)n3)nc2c1
IC50: < 200 nM

COMPOUND: Cn1cnnc1-c1cc(F)ccc1-c1cc(-c2nc3cc(CNCC4CCC4)cc(C(F)(F)F)c3o2)cc(C2CC2)c1
IC50: < 200 nM

COMPOUND: Cn1cnnc1-c1cc(F)ccc1-c1cccc(-c2nc3cc(CN[C@H]4CC[C@@H]4O)cc(C(F)(F)F)c3o2)c1 (racemic) [ADF-2]
IC50: < 200 nM

COMPOUND: COC1(CNC2(c3cc(F)c4oc(-c5cc(-c6ccc(F)cc6-c6nncn6C)cc(C6CC6)n5)nc4c3)CC2)CCC1
IC50: 200 to 1000 nM

Query: Which measured IC50 value corresponds to `Cn1cnnc1-c1cc(Cl)ccc1-c1cccc(-c2nc3cc(CN[C@@H]4CCC[C@@H]4O)ccc3o2)c1` ?
Response: < 200 nM

---

ASSAY_SYSTEM: Recombinant human Cbl-b (aa 36-427) (Homo sapiens, UniProt Q13191)
Sequence (Q13191 36-427): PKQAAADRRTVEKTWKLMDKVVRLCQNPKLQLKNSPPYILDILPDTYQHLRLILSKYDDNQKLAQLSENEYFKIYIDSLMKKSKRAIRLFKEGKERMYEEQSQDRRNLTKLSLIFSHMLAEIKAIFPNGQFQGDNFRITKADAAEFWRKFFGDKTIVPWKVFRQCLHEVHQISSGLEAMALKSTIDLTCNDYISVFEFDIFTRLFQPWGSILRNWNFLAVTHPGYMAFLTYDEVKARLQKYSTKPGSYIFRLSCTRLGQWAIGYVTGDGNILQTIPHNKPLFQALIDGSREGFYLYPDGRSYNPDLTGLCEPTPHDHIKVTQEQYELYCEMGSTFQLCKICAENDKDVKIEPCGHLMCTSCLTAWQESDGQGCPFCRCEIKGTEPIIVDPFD
METHOD_DESCRIPTION: Cbl-b Biochemical Assay (TR-FRET)
RUN_CONDITIONS: read-out: TR-FRET hCbl-b IC50
OBSERVATION_TYPE: IC50

COMPOUND: Cn1cnnc1-c1cc(F)ccc1-c1cc(-c2nc3cc(CO)ccc3[nH]2)nc(C2CC2)c1
ASSAY_SYSTEM: Recombinant human Cbl-b (aa 36-427) (Homo sapiens, UniProt Q13191)
IC50: 1 to 10 µM
--
COMPOUND: Cn1cnnc1-c1cc(F)ccc1-c1cccc(-c2nc3ccccc3[nH]2)c1
ASSAY_SYSTEM: Recombinant human Cbl-b (aa 36-427) (Homo sapiens, UniProt Q13191)
IC50: 10 to 50 µM
--
COMPOUND: Cn1cnnc1-c1cc(F)ccc1-c1cccc(-c2nc3cc(CNCC4(C#N)CCCC4)cc(C(F)(F)F)c3o2)c1
ASSAY_SYSTEM: Recombinant human Cbl-b (aa 36-427) (Homo sapiens, UniProt Q13191)
IC50: < 0.2 µM

Query: Record request: IC50 value, item `Cn1cnnc1-c1ccccc1-c1cccc(-c2nc3cc(C(=O)N4CCC5(CC5)C4)cc(C(F)(F)F)c3[nH]2)c1`
Response: 10 to 50 µM

Query: Now this one: `Cn1cnnc1-c1cc(F)ccc1-c1cccc(-c2nc3cc(CNCCO)cc(C(F)(F)F)c3o2)c1`
Response: < 0.2 µM

Query: Also `Cn1cnnc1-c1ccccc1-c1cccc(-c2nc3ccc(F)c(C(F)(F)F)c3[nH]2)c1` , if possible.
Response: 10 to 50 µM

Query: Same again, this time with `COc1cc(CN[C@@H]2C[C@H](O)C2(C)C)cc2nc(-c3cccc(-c4ccc(F)cc4-c4nncn4C)c3)oc12`
Response: < 0.2 µM

Query: Next: `Cn1cnnc1-c1cc(F)ccc1-c1cccc(-c2nc3cc(CO)ccc3o2)c1`
Response: 10 to 50 µM

Query: What would you report for `Cn1cnnc1-c1cc(F)ccc1-c1cc(-c2nc3cc(CNCC4CCC4)cc(C(F)(F)F)c3o2)cc(C2CC2)c1` ?
Response: < 0.2 µM

Query: Also need `Cn1cnnc1-c1cc(F)ccc1-c1cccc(-c2cn3cc(CO)ccc3n2)c1` , thanks.
Response: 1 to 10 µM

Query: Moving on to the next compound: Cc1cc(C(C)NCC2CCC2)cc2nc(-c3cc(-c4ccc(F)cc4-c4nncn4C)cc(C4CC4)n3)oc12 (stereo not shown)
Response: < 0.2 µM

Query: Also, `CC(C)CNCc1cc(C(F)(F)F)c2oc(-c3cccc(-c4ccc(F)cc4-c4nncn4C)c3)nc2c1` please.
Response: < 0.2 µM

Query: Another compound: `CO[C@@H]1CCCN(Cc2cc(C(F)(F)F)c3oc(-c4cccc(-c5ccc(F)cc5-c5nncn5C)c4)nc3c2)C1`
Response: < 0.2 µM

Query: And for `C[C@H](Cc1nncn1C)c1cccc(-c2nc3cccc(C(F)(F)F)n3n2)c1` ?
Response: 10 to 50 µM

Query: And the next one, `C[C@H](NCc1cc(C(F)(F)F)c2oc(-c3cccc(-c4ccc(F)cc4-c4nncn4C)c3)nc2c1)C1CCC1` ?
Response: < 0.2 µM

Query: Cool, now `COC[C@H](C)NCc1cc(C(F)(F)F)c2oc(-c3cccc(-c4ccc(F)cc4-c4nncn4C)c3)nc2c1`
Response: < 0.2 µM

---

ASSAY_SYSTEM: Recombinant human Cbl-b (aa 36-427) (Homo sapiens, UniProt Q13191)
METHOD_DESCRIPTION: Cbl-b Biochemical Assay (TR-FRET)
RUN_CONDITIONS: read-out: TR-FRET hCbl-b IC50
Each entry below carries its recorded IC50.

Observe how each entry below is paired with its result.
COMPOUND: C[C@@H]1CN(Cc2cc(C(F)(F)F)c3[nH]c(-c4cccc(-c5ccc(F)cc5-c5nncn5C)c4)nc3c2)CCO1
ASSAY_SYSTEM: Recombinant human Cbl-b (aa 36-427) (Homo sapiens, UniProt Q13191)
IC50: < 200 nM
//
COMPOUND: Cn1cnnc1CC1(c2cccc(-c3nc4cc(CNc5nccn5C)cc(C(F)(F)F)c4[nH]3)c2)COC1
ASSAY_SYSTEM: Recombinant human Cbl-b (aa 36-427) (Homo sapiens, UniProt Q13191)
IC50: 200 to 1000 nM
//
COMPOUND: Cn1cnnc1-c1cc(F)ccc1-c1cc(-c2nc3cc(CN[C@@H]4CCC[C@@H]4O)ccc3[nH]2)nc(C2CC2)c1
ASSAY_SYSTEM: Recombinant human Cbl-b (aa 36-427) (Homo sapiens, UniProt Q13191)
IC50: < 200 nM
//
COMPOUND: CC(NCC1(O)CCC1)c1cc(F)c2oc(-c3cc(-c4ccc(F)cc4-c4nncn4C)cc(C4CC4)n3)nc2c1 (stereo in doubt) [AFR-1]
ASSAY_SYSTEM: Recombinant human Cbl-b (aa 36-427) (Homo sapiens, UniProt Q13191)
IC50: < 200 nM
//
COMPOUND: Cc1c(F)c(CN[C@@H]2CCC[C@@H]2O)cc2nc(-c3cc(-c4ccc(F)cc4-c4nncn4C)cc(C4CC4)n3)oc12
ASSAY_SYSTEM: Recombinant human Cbl-b (aa 36-427) (Homo sapiens, UniProt Q13191)
IC50: < 200 nM

Query: Which value of IC50 has been reported for `Cn1cnnc1-c1cc(Cl)ccc1-c1cc(-c2nc3cc(CNCC4(O)CCC4)ccc3o2)nc(C2CC2)c1` in the records?
Response: < 200 nM

Query: Request: `Cn1cnnc1-c1cc(F)ccc1-c1cccc(-c2nc3cc(CN[C@@H]4CCC[C@H]4O)cc(C(F)(F)F)c3o2)c1`
Response: < 200 nM

---

ASSAY_SYSTEM: Recombinant human c-Cbl (aa 47-435) (Homo sapiens)
METHOD_DESCRIPTION: c-Cbl Biochemical Assay (TR-FRET)
RUN_CONDITIONS: hc-Cbl Biochemical Assay (TR-FRET); read-out: TR-FRET hcCbl IC50
OBSERVATION_TYPE: IC50

Would you please look over these solved cases?
MOLECULE: Cn1cnnc1-c1cc(F)ccc1-c1cccc(-c2nc3cc(C(NCC4CCC4)C(F)(F)F)cc(F)c3o2)c1 (racemic) [IL-6]
IC50: 1000 to 10000 nM
--
MOLECULE: Cn1cnnc1-c1cc(C#N)ccc1-c1cccc(-c2nc3cc(CO)cc(C(F)(F)F)c3[nH]2)c1 [BZ-1]
IC50: 10000 to 50000 nM
--
MOLECULE: Cn1cnnc1-c1ccccc1-c1cccc(-c2nc3cc(CN[C@@H]4CCC[C@@H]4O)cc(C(F)(F)F)c3o2)c1 [Example R-3]
IC50: 1000 to 10000 nM
--
MOLECULE: Cn1cnnc1-c1cc(F)ccc1-c1cccc(-c2nc3cc(CN[C@H]4CCC[C@@H]4O)cc(C(F)(F)F)c3o2)c1 [HJ-1]
IC50: < 200 nM
--
MOLECULE: CCNc1cc(-c2ccccc2-c2nncn2C)cc(-c2nc3cc(CO)cc(C(F)(F)F)c3[nH]2)n1 [AAN-3]
IC50: 10000 to 50000 nM

Query: Give the measured IC50 of CN(C)C(=O)CNCc1cc(C(F)(F)F)c2oc(-c3cccc(-c4ccc(F)cc4-c4nncn4C)c3)nc2c1 [EI-4] .
Response: 200 to 1000 nM

Query: Repeat for the following molecule: C[C@@H]1CCCN(Cc2cc(C(F)(F)F)c3oc(-c4cc(-c5ccccc5-c5nncn5C)cc(C5CC5)n4)nc3c2)C1 [AAQ-2]
Response: 1000 to 10000 nM

Query: Then what about the molecule Cn1cnnc1-c1cc(F)ccc1-c1cccc(-c2nc3cc(CN[C@@H]4CCC[C@@H]4F)cc(C(F)(F)F)c3o2)c1 [CW-5] ?
Response: < 200 nM

Query: Try the molecule Cn1cnnc1-c1cc(F)ccc1-c1cccc(-c2cn3ccc(CO)cc3n2)c1 [GN-5]
Response: 10000 to 50000 nM

Query: Now try Cn1cnnc1-c1cc(F)ccc1-c1cccc(-c2nc3cc(CN[C@@H]4CCC[C@@H]4O)cc(Cl)c3o2)c1 [HG-7] .
Response: < 200 nM

Query: Could you do the same for Cn1cnnc1-c1cc(F)ccc1-c1cccc(-c2nc3cc(CN[C@@H]4CCC[C@@H]4O)cc(C4CC4)c3o2)c1 [ES-6] , please?
Response: < 200 nM
